Test summary: in vitro
Condition info: human, hela cells, % viability
Measured metric: viability at 28.5 h, 10 µM (%)
Give bare numbers, in %.

These solved cases illustrate the format of a correct answer.
[[record]]
molecule = "O=C(CSc1nnc(-c2cccc(F)c2)o1)c1ccccc1"
reported = 105

[[record]]
molecule = "CC1(C)[C@H](Cc2cc(CO)on2)C[C@@H]1NS(=O)(=O)c1ccccc1"
reported = 86

[[record]]
molecule = "CCN(CC)C(=O)C1CCCN(C(=O)NCc2ccc(C#N)cc2)C1 (centres unmarked)"
reported = 102

[[record]]
molecule = "CCCCN(C=O)c1c(CC)nc2ccc(C(=O)N3CCN(C)CC3)cn12"
reported = 93.1

[[record]]
molecule = "O=C(O)C1C2C=CC(O2)C1C(=O)NCCCc1ccccc1 (centres unmarked)"
reported = 93.3


Quick one: give me viability at 28.5 h, 10 µM for each item below, same order please.
1. c1cc(CNCCN2CCOCC2)cs1
2. CCN(CC)C(=O)N1CCC(c2cccnc2)CC1
3. CC(C)C(=O)Nc1cccc(-c2cn3ccsc3n2)c1

A)
105
99.9
67

meta.source: paper PMC12040169
